Target: serotonin 5-HT3A receptor (Homo sapiens)
Test: Assay for 5-HT3A receptor: two-electrode voltage clamp of 5-HT-induced inward current in Xenopus oocytes expressing 5-HT3A receptor
Type: cell-based
Settings: inhibition of inward current (I5-HT) induced by 5-HT (1 μM), Xenopus laevis oocytes, from concentration-response curves; read-out: maximum inhibition value (Vmax)
experimental.endpoint: inhibition (%)

molecule=CCCc1cc(CNCCN2CCN(c3ccc(Cl)cc3)CC2)nn1-c1ccccc1 test_target="serotonin 5-HT3A receptor (Homo sapiens)" experimental_endpoint=inhibition endpoint_unit=% numeric_value=94.8
molecule=Cc1cc(CNCCN2CCN(c3cccc(Cl)c3)CC2)[nH]n1 test_target="serotonin 5-HT3A receptor (Homo sapiens)" experimental_endpoint=inhibition endpoint_unit=% numeric_value=90.6
molecule=Clc1cccc(N2CCN(CCNCc3cc(-c4ccco4)n(-c4ccccc4)n3)CC2)c1 test_target="serotonin 5-HT3A receptor (Homo sapiens)" experimental_endpoint=inhibition endpoint_unit=% numeric_value=95.9
molecule=Clc1ccc(N2CCN(CCNCc3cc(-c4ccc(N5CCCCC5)cc4)n(-c4ccccc4)n3)CC2)cc1 test_target="serotonin 5-HT3A receptor (Homo sapiens)" experimental_endpoint=inhibition endpoint_unit=% numeric_value=95.9
molecule=CC(C)Cc1cc(CNCCN2CCN(c3ccc(Cl)cc3)CC2)nn1C(C)(C)C test_target="serotonin 5-HT3A receptor (Homo sapiens)" experimental_endpoint=inhibition endpoint_unit=% numeric_value=104
molecule=CC(C)Cc1cc(CNCCN2CCN(c3ccc(Cl)cc3)CC2)nn1-c1ccccc1 test_target="serotonin 5-HT3A receptor (Homo sapiens)" experimental_endpoint=inhibition endpoint_unit=% numeric_value=103
molecule=Clc1ccc(N2CCN(CCNCc3cc(-c4ccccc4)n(-c4ccccc4)n3)CC2)cc1 test_target="serotonin 5-HT3A receptor (Homo sapiens)" experimental_endpoint=inhibition endpoint_unit=% numeric_value=101
molecule=Cc1ccc(-c2cc(CNCCN3CCN(c4ccc(Cl)cc4)CC3)nn2C(C)(C)C)cc1 test_target="serotonin 5-HT3A receptor (Homo sapiens)" experimental_endpoint=inhibition endpoint_unit=% numeric_value=103
molecule="CN1[C@@H]2CC[C@H]1C[C@@H](OC(=O)c1cc(Cl)cc(Cl)c1)C2 [MDL72222, reference compound]" test_target="serotonin 5-HT3A receptor (Homo sapiens)" experimental_endpoint=inhibition endpoint_unit=% numeric_value=99.6
molecule=Clc1ccc(N2CCN(CCNCc3cc(-c4ccco4)n(-c4ccccc4)n3)CC2)cc1 test_target="serotonin 5-HT3A receptor (Homo sapiens)" experimental_endpoint=inhibition endpoint_unit=% numeric_value=97.3

====

Biological target: serotonin 5-HT3A receptor (Homo sapiens, UniProt P46098)
Sequence (P46098 24-478): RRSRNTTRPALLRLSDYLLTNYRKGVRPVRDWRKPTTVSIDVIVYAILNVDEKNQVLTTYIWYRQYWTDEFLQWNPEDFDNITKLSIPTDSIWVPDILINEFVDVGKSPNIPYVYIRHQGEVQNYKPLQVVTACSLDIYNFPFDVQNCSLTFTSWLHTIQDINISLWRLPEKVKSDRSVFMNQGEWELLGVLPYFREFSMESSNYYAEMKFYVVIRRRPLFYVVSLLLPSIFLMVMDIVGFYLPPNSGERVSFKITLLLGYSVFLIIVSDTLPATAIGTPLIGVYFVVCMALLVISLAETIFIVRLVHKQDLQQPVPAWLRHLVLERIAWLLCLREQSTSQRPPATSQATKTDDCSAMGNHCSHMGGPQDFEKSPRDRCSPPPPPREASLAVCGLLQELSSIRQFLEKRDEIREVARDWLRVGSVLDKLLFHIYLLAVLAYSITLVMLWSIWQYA
Experiment: Assay for 5-HT3A receptor: two-electrode voltage clamp of 5-HT-induced inward current in Xenopus oocytes expressing 5-HT3A receptor
Assay type: cell-based
Settings: inhibition of inward current (I5-HT) induced by 5-HT (1 μM), Xenopus laevis oocytes, from concentration-response curves
experimental.endpoint: Hill coefficient (nH)

molecule=CCCc1cc(CNCCN2CCN(c3ccc(Cl)cc3)CC2)nn1-c1ccccc1 test_target="serotonin 5-HT3A receptor (Homo sapiens, UniProt P46098)" numeric_value=1.5
molecule=Clc1ccc(N2CCN(CCNCc3cc(-c4ccccc4)n(-c4ccccc4)n3)CC2)cc1 test_target="serotonin 5-HT3A receptor (Homo sapiens, UniProt P46098)" numeric_value=1.1
molecule="CN1[C@@H]2CC[C@H]1C[C@@H](OC(=O)c1cc(Cl)cc(Cl)c1)C2 [MDL72222, reference compound]" test_target="serotonin 5-HT3A receptor (Homo sapiens, UniProt P46098)" numeric_value=1.25
molecule=Clc1cccc(N2CCN(CCNCc3cc(-c4ccco4)n(-c4ccccc4)n3)CC2)c1 test_target="serotonin 5-HT3A receptor (Homo sapiens, UniProt P46098)" numeric_value=1.5

====

Biological target: serotonin 5-HT3A receptor (Homo sapiens, UniProt P46098)
Assay: Assay for 5-HT3A receptor: two-electrode voltage clamp of 5-HT-induced inward current in Xenopus oocytes expressing 5-HT3A receptor
Settings: inhibition of inward current (I5-HT) induced by 5-HT (1 μM), Xenopus laevis oocytes, from concentration-response curves; read-out: IC50 (50% inhibitory concentration)
pIC50: −log10 of the molar value.
experimental.endpoint: pIC50

Solved cases below.
smiles_str=Clc1ccc(N2CCN(CCNCc3cc(-c4ccccc4)n(-c4ccccc4)n3)CC2)cc1 numeric_value=5.51
smiles_str=Clc1ccc(N2CCN(CCNCc3cc(-c4ccco4)n(-c4ccccc4)n3)CC2)cc1 numeric_value=5.37
smiles_str=Clc1ccc(N2CCN(CCNCc3cc(-c4ccc(N5CCCCC5)cc4)n(-c4ccccc4)n3)CC2)cc1 numeric_value=5.19
smiles_str=Cc1cc(CNCCN2CCN(c3cccc(Cl)c3)CC2)[nH]n1 numeric_value=5.02
smiles_str=Cc1ccc(-c2cc(CNCCN3CCN(c4ccc(Cl)cc4)CC3)nn2C(C)(C)C)cc1 numeric_value=5.62
smiles_str=CC(C)Cc1cc(CNCCN2CCN(c3ccc(Cl)cc3)CC2)nn1-c1ccccc1 numeric_value=5.55

[a] Clc1cccc(N2CCN(CCNCc3cc(-c4ccco4)n(-c4ccccc4)n3)CC2)c1
[b] CCCc1cc(CNCCN2CCN(c3ccc(Cl)cc3)CC2)nn1-c1ccccc1
Of the pair a and b , name the member with the lesser recorded pIC50. Choose, then provide that item's label. a

====

Target: serotonin 5-HT3A receptor (Homo sapiens)
Experiment: Assay for 5-HT3A receptor: two-electrode voltage clamp of 5-HT-induced inward current in Xenopus oocytes expressing 5-HT3A receptor
Type: cell-based
Details: inhibition of inward current (I5-HT) induced by 5-HT (1 μM), Xenopus laevis oocytes, from concentration-response curves
experimental.endpoint: Hill coefficient (nH)

Example molecules with recorded Hill coefficient (nH):
molecule="CC(C)Cc1cc(CNCCN2CCN(c3ccc(Cl)cc3)CC2)nn1-c1ccccc1 [Compound 6]" experimental_endpoint="Hill coefficient (nH)" numeric_value=1.2
molecule="Clc1ccc(N2CCN(CCNCc3cc(-c4ccc(N5CCCCC5)cc4)n(-c4ccccc4)n3)CC2)cc1 [Compound 10]" experimental_endpoint="Hill coefficient (nH)" numeric_value=1.9
molecule="Cc1cc(CNCCN2CCN(c3cccc(Cl)c3)CC2)[nH]n1 [Compound 2]" experimental_endpoint="Hill coefficient (nH)" numeric_value=1.0

[a] CC(C)Cc1cc(CNCCN2CCN(c3ccc(Cl)cc3)CC2)nn1C(C)(C)C [Compound 7]
[b] Clc1ccc(N2CCN(CCNCc3cc(-c4ccco4)n(-c4ccccc4)n3)CC2)cc1 [Compound 8]
Given the two records a and b , choose the one whose Hill coefficient (nH) value is lower. Which one? Tell me its label. a
(a: 1.4, b: 2.0)
